Every entry's value here was drawn from ChEMBL document CHEMBL1157539.

# Test system: Plasmodium falciparum
# ASSAY NAME: GSK_TCMDC: Inhibition of Plasmodium falciparum Dd2 in whole red blood cells, using parasite LDH activity as an index of growth. Test compounds present at 2uM
# Assay type: functional
QUANTITY NAME: Inhibition

MOLECULE	Inhibition
CNCc1ccc(-c2cccc(CNCc3ccc(-c4ccccc4)cc3)c2)c(C(=O)OC)c1.O=C(O)C(F)(F)F	19%
CCN(CC)CCNc1ccnc2c3ccccc3n(C)c12	99%
Cc1ccc(Nc2ccnc3ccc(C(F)(F)F)cc23)cc1O.O=C(O)C(F)(F)F	69%
CCN(CC)CCCNc1ncc2c(-c3ccc(NC(=O)Nc4cc(C(F)(F)F)ccc4F)c(F)c3)nn(C)c2n1.O=C(O)C(F)(F)F	68%
Cc1ccccc1C1CCN(C2CCC(NC(=O)C3=Cc4cc(Cl)ccc4OC3)CC2)CC1 (configuration not stated)	99%

What reported Inhibition corresponds to COc1ccc(CNCCc2cccs2)cc1-c1cccc(S(=O)(=O)NCCN2CCCC2)c1.O=C(O)C(F)(F)F on Plasmodium falciparum?
41%

Note, next up: O=C(NCCCCCN1CCC(c2c[nH]c3ccccc23)CC1)c1ccc(-c2ccccc2)nc1
13%
